These measurements were taken from PubChem BioAssay AID624377.

- Experimental system: Arf-GAP with SH3 domain, ANK repeat and PH domain-containing protein 1 (Homo sapiens) (UniProt Q9ULH1)
- Sequence (Q9ULH1 325-724 limits assumed): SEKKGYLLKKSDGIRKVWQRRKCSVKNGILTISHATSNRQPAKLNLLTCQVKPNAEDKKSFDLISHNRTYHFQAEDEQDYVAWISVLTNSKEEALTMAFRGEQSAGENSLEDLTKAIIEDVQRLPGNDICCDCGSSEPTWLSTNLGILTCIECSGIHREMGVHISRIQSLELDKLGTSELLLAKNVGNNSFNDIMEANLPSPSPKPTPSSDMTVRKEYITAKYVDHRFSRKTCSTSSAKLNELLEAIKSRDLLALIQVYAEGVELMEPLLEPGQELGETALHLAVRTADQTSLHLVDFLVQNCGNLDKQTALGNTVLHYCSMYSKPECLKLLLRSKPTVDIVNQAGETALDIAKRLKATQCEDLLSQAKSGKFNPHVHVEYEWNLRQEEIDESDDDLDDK
- Measurement protocol: inhibitors of human ASAP1 ArfGAP activity, primary screen, biochemical, fluorescence polarization (AID 624377);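 further: 0% = vehicle with enzyme and substrate and 100% = no enzyme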
- Particulars: ASAP1-stimulated ARF1 GTP hydrolysis, GDP FP detection; at 16.5 µM; active compounds read high
About 680 (0.19%) of roughly 360,000 compounds were called active. The sample as a whole holds a higher share of actives than the screen did.
Readout kind: inhibition (%)
Report the figure in % without appending any unit label.

- Compound: "N#Cc1cccc(C(=O)NCC2CCN(C(=O)C(=O)c3cc4ccccc4o3)CC2)c1"
  Readout kind: "inhibition"
  Value unit: "%"
  Meas value: -11.4

Query string: # inhibition lookup, item Nc1[nH]c(C(=O)c2ccccc2)c(-c2ccc(Cl)cc2Cl)c1C(=O)c1ccccc1
Result string: 1.42

Query string: Next entry: COC(=O)c1c(-c2ccc(OC)cc2)c2c(c3c4cc(OC)ccc4n(S(=O)(=O)c4ccc(F)cc4)c13)C(=O)N(C)C2
Result string: -0.62

Query string: Next entry: CCc1c(-c2ccccc2OC)ncn1CCc1ccccc1OC
Result string: 8.29
